Origin of the recorded values: ChEMBL document CHEMBL6096657

- Protocol summary: Cytotoxicity against mouse BMDC cells
- Type: toxicity, cell-based
- Stated conditions: BMDC cells (bone marrow-derived dendritic cells)
Where a SMILES comes first, the peptide text is derived from it. Bridges are numbered along the chain shown (N, C = ends).

[
  {
    "Compound": "CC(=O)N[C@@H](Cc1ccccc1)C(=O)N[C@@H](Cc1c[nH]c2ccccc12)C(=O)N[C@@H](Cc1ccccc1)C(=O)N[C@@H](CC(C)C)C(=O)N[C@H]1CSSC[C@@H](C(N)=O)NC(=O)[C@H](CCCNC(=N)N)NC(=O)[C@H](CCCNC(=N)N)NC(=O)[C@H](CCCNC(=N)N)NC(=O)[C@H](CCCNC(=N)N)NC(=O)[C@H](CCCNC(=N)N)NC(=O)[C@H](CCCNC(=N)N)NC(=O)[C@H](CCCNC(=N)N)NC(=O)[C@H](CCCNC(=N)N)NC1=O (Ac-FWFLCRRRRRRRRC-NH2; disulfide 5-14)",
    "Unit abbrev": "µM",
    "IC50": 7.8
  }
]
